TARGET: IRAK4 (Homo sapiens)
Sequence (Q9NWZ3 whole entry, species assumed): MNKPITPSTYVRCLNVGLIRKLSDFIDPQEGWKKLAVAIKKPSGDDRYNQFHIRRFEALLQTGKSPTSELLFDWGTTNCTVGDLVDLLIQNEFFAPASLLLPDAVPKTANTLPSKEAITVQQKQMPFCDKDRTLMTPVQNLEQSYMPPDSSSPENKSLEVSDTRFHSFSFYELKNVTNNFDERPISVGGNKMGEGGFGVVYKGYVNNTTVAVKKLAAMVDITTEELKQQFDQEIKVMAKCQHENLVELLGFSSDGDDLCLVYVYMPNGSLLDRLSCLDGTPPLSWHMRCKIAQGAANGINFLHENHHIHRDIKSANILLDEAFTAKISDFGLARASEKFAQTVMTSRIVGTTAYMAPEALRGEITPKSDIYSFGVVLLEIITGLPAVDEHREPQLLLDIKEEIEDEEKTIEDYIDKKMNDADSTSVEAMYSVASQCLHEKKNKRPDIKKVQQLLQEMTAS
ASSAY_PROCEDURE: Hibit fluorescence detection of proteolysis (IRAK4-HiBiT in HEK293T cells)
Type: cell-based
Set-up: host or cells: HEK293T (ATCC)
CONDITION_NOTES: HEK-293T
Counter-ions that a name gives are not always drawn.
MEASURE_NAME: Dmax

Reference set, count: 5
Which measured Dmax belongs to Cn1c(=O)n(C2CCC(=O)NC2=O)c2cccc(N3CCN(C4CCN(C[C@H]5CC[C@H](n6cc(-n7cc(-n8ccc9cc(C(N)=O)cnc98)nn7)c(C(F)F)n6)CC5)CC4)CC3)c21 (stereo partly shown) , tested on IRAK4 (Homo sapiens)? > 80%

Which measured Dmax belongs to Cn1c(=O)n(C2CCC(=O)NC2=O)c2cccc(N3CCC4(CC3)CN(C[C@H]3CC[C@H](n5cc(-n6cc(-c7cnn8ccc(N9CCOCC9)nc78)nn6)c(C(F)F)n5)CC3)CCO4)c21 (stereo partly shown) , tested on IRAK4 (Homo sapiens)? 70 to 80%

Which measured Dmax belongs to Cn1c(=O)n(C2CCC(=O)NC2=O)c2cccc(N3CCN(C[C@H]4CC[C@H](n5cc(-n6cc(-n7ccc8cc(C(N)=O)cnc87)nn6)c(C(F)F)n5)CC4)CC3)c21 (stereo partly shown) , tested on IRAK4 (Homo sapiens)? 60 to 70%

Which measured Dmax belongs to Cn1c(=O)n(C2CCC(=O)NC2=O)c2cccc(N3CCC4(CCN(C[C@H]5CC[C@H](n6cc(-n7cc(-c8cnn9ccc(N%10CCNCC%10)nc89)nn7)c(C(F)F)n6)CC5)C4)CC3)c21 (stereo partly shown) [Example 128, dihydrochloride] , tested on IRAK4 (Homo sapiens)? > 80%

Which measured Dmax belongs to CN1CCN(c2ccn3ncc(-c4cn(-c5cn([C@H]6CC[C@H](CN(C)[C@H]7CC[C@H](Nc8cccc9c8n(C)c(=O)n9C8CCC(=O)NC8=O)CC7)CC6)nc5C(F)F)nn4)c3n2)CC1 (stereo partly shown) , tested on IRAK4 (Homo sapiens)? 60 to 70%

***
Which measured Dmax belongs to Cn1c(=O)n(C2CCC(=O)NC2=O)c2cccc(N3CCN(C4CCN(C[C@H]5CC[C@H](n6cc(-n7cc(-c8cnn9ccc(NCCC(C)(C)O)nc89)nn7)c(C(F)F)n6)CC5)CC4)CC3)c21 (stereo partly shown) , tested on IRAK4 (Homo sapiens)? > 80%

Which measured Dmax belongs to Cn1c(=O)n(C2CCC(=O)NC2=O)c2cccc(N3CCN(C4CCN(C[C@H]5CC[C@H](n6cc(-n7cc(-c8ccc9cc(C(N)=O)cnn89)nn7)c(C(F)F)n6)CC5)CC4)CC3)c21 (stereo partly shown) , tested on IRAK4 (Homo sapiens)? > 80%

Which measured Dmax belongs to Cn1c(=O)n(C2CCC(=O)NC2=O)c2cccc(N3CCN(C4CCN(C[C@H]5CC[C@H](n6cc(-n7cc(-c8cnn9ccc(N%10CCC[C@@H](O)C%10)nc89)nn7)c(C(F)F)n6)CC5)CC4)CC3)c21 (stereo partly shown) , tested on IRAK4 (Homo sapiens)? > 80%

Which measured Dmax belongs to Cn1c(=O)n(C2CCC(=O)NC2=O)c2cccc(N3CCC4(CCN(C[C@H]5CC[C@H](n6cc(-n7cc(-n8ccc9cc(C(N)=O)cnc98)nn7)c(C(F)F)n6)CC5)CC4)C3)c21 (stereo partly shown) , tested on IRAK4 (Homo sapiens)? > 80%

Which measured Dmax belongs to Cn1c(=O)n(C2CCC(=O)NC2=O)c2cccc(N3CC(N4CCN(C[C@H]5CC[C@H](n6cc(-n7cc(-c8cnn9ccc(N%10CCOCC%10)nc89)nn7)c(C(F)F)n6)CC5)CC4)C3)c21 (stereo partly shown) , tested on IRAK4 (Homo sapiens)? < 60%

---

The entries below come with measured DC50 values attached.
TARGET: IRAK4 (Homo sapiens)
ASSAY_PROCEDURE: Hibit fluorescence detection of proteolysis (IRAK4-HiBiT in HEK293T cells)
Format: cell-based
Parameters: host or cells: HEK293T (ATCC)
CONDITION_NOTES: IRAK4-HiBiT, HEK293T cells, 24 h

Reference set, count: 2
Field request: DC50 | item: Cn1c(=O)n(C2CCC(=O)NC2=O)c2cccc(N3CCC4(CCN(C[C@H]5CC[C@H](n6cc(-n7cc(-c8cnn9ccc(N%10CCS(=O)(=O)CC%10)nc89)nn7)c(C(F)F)n6)CC5)CC4)CC3)c21 (stereo partly drawn) < 0.5 nM

Field request: DC50 | item: Cn1c(=O)n(C2CCC(=O)NC2=O)c2cccc(N3CCC4(CCN(C[C@H]5CC[C@H](n6cc(-n7cc(-c8cnn9ccc(N%10CCC[C@H](O)C%10)nc89)nn7)c(C(F)F)n6)CC5)CC4)C3)c21 (stereo partly drawn) < 0.5 nM

Kindly review the next compound as well.
Field request: DC50 | item: Cn1c(=O)n(C2CCC(=O)NC2=O)c2cccc(C#CCOC3CCN(C[C@H]4CC[C@H](n5cc(-n6cc(-c7ccc8cc(C(N)=O)cnn78)nn6)c(C(F)F)n5)CC4)CC3)c21 (stereo partly drawn) < 0.5 nM

---

TARGET: UniProtKB Q9NWZ3
ASSAY_PROCEDURE: Hibit fluorescence detection of proteolysis (IRAK4-HiBiT in HEK293T cells)
Type: cell-based
Design: host or cells: HEK293T (ATCC)
CONDITION_NOTES: HEK-293T
Structures can show the parent of a compound that is named as a salt.
MEASURE_NAME: Dmax

Field request: Dmax | item: Cn1c(=O)n(C2CCC(=O)NC2=O)c2cccc(N3CCN(C4CCN(C[C@H]5CC[C@H](n6cc(-n7cc(-c8cnn9ccc(N%10CCC[C@H](N)C%10)nc89)nn7)c(C(F)F)n6)CC5)CC4)CC3)c21 (some centres unmarked) [Example 117, hydrochloride] > 80%

Kindly review the next molecule as well.
Field request: Dmax | item: C[C@H]1CN(c2ccn3ncc(-c4cn(-c5cn([C@H]6CC[C@H](CN7CCC8(CC7)CCN(c7cccc9c7n(C)c(=O)n9C7CCC(=O)NC7=O)C8)CC6)nc5C(F)F)nn4)c3n2)CCO1 (some centres unmarked) [Compound 203] > 80%

---

TARGET: IRAK4 (Homo sapiens)
ASSAY_PROCEDURE: WB detection of proteolysis (Western Blot, THP-1 cells)
Assay type: cell-based
CONDITION_NOTES: Western Blot, THP-1 cells, 24 h; read-out: DC50
MEASURE_NAME: DC50

Reference set, count: 5
Which measured DC50 belongs to Cn1c(=O)n(C2CCC(=O)NC2=O)c2cccc(N3CCC4(CCN(C[C@H]5CC[C@H](n6cc(-n7cc(-c8cnn9ccc(N%10CCC(O)CC%10)nc89)nn7)c(C(F)F)n6)CC5)CC4)CC3)c21 (stereo partly drawn) , tested on IRAK4 (Homo sapiens)? < 10 nM

Which measured DC50 belongs to Cn1c(=O)n(C2CCC(=O)NC2=O)c2cccc(N3CCC(N4CCN(C[C@H]5CC[C@H](n6cc(-n7cc(-n8ccc9cc(C(N)=O)cnc98)nn7)c(C(F)F)n6)CC5)CC4)CC3)c21 (stereo partly drawn) , tested on IRAK4 (Homo sapiens)? < 10 nM

Which measured DC50 belongs to Cn1nc(N2CCC(=O)NC2=O)c2ccc(N3CCC(N4CCN(C[C@H]5CC[C@H](n6cc(-n7cc(-c8cnn9ccc(N[C@@H]%10CCCC[C@@H]%10O)nc89)nn7)c(C(F)F)n6)CC5)CC4)CC3)cc21 , tested on IRAK4 (Homo sapiens)? > 30 nM

Which measured DC50 belongs to Cn1c(=O)n(C2CCC(=O)NC2=O)c2cccc(N3CCC(N4CCN(C[C@H]5CC[C@H](n6cc(-n7cc(-c8cnn9ccc(N%10CCC(C)(O)CC%10)nc89)nn7)c(C(F)F)n6)CC5)CC4)CC3)c21 (stereo partly drawn) , tested on IRAK4 (Homo sapiens)? < 10 nM

Which measured DC50 belongs to Cn1c(=O)n(C2CCC(=O)NC2=O)c2cccc(N3CCN(C[C@H]4CC[C@H](n5cc(-n6cc(-c7cnn8ccc(N9CCOCC9)nc78)nn6)c(C(F)F)n5)CC4)CC3)c21 (stereo partly drawn) , tested on IRAK4 (Homo sapiens)? < 10 nM

***
Which measured DC50 belongs to Cn1c(=O)n(C2CCC(=O)NC2=O)c2cccc(N3CCC4(CCN(C[C@H]5CC[C@H](n6cc(-n7cc(-c8cnn9ccc(N%10CCOCC%10)nc89)nn7)c(C(F)F)n6)CC5)C4)CC3)c21 (stereo partly drawn) , tested on IRAK4 (Homo sapiens)? < 10 nM

Which measured DC50 belongs to Cn1c(=O)n(C2CCC(=O)NC2=O)c2cccc(N3CCC4(CCN(C[C@H]5CC[C@H](n6cc(-n7cc(-c8cnn9ccc(N%10CCC[C@H](N)C%10)nc89)nn7)c(C(F)F)n6)CC5)CC4)C3)c21 (stereo partly drawn) , tested on IRAK4 (Homo sapiens)? 10 to 30 nM

Which measured DC50 belongs to Cn1c(=O)n(C2CCC(=O)NC2=O)c2cccc(N3CCC(N4CCN(C[C@H]5CC[C@H](n6cc(-n7cc(-c8cnn9ccc(N%10CCOCC%10)nc89)nn7)c(C(F)F)n6)CC5)CC4)CC3)c21 (stereo partly drawn) , tested on IRAK4 (Homo sapiens)? < 10 nM

Which measured DC50 belongs to Cn1c(=O)n(C2CCC(=O)NC2=O)c2cccc(N3CCC(N4CCN(C[C@H]5CC[C@H](n6cc(-n7cc(-c8cnn9ccc(N%10CCO[C@@H](CO)C%10)nc89)nn7)c(C(F)F)n6)CC5)CC4)CC3)c21 (stereo partly drawn) , tested on IRAK4 (Homo sapiens)? < 10 nM

Which measured DC50 belongs to Cn1c(=O)n(C2CCC(=O)NC2=O)c2cccc(N3CCC4(CCN(C[C@H]5CC[C@H](n6cc(-n7cc(-c8cnn9ccc(NCC%10CC%10)nc89)nn7)c(C(F)F)n6)CC5)CC4)CC3)c21 (stereo partly drawn) , tested on IRAK4 (Homo sapiens)? < 10 nM

Which measured DC50 belongs to Cn1c(=O)n(C2CCC(=O)NC2=O)c2cccc(N3CCC4(CCN(C[C@H]5CC[C@H](n6cc(-n7cc(-c8cnn9ccc(N[C@@H]%10CCCC[C@@H]%10O)nc89)nn7)c(C(F)F)n6)CC5)C4)CC3)c21 (stereo partly drawn) , tested on IRAK4 (Homo sapiens)? < 10 nM

Which measured DC50 belongs to Cn1c(=O)n(C2CCC(=O)NC2=O)c2cccc(N3CCC(N4CCN(C[C@H]5CC[C@H](n6cc(-n7cc(-c8cnn9ccc(N%10CCOC[C@@H]%10CO)nc89)nn7)c(C(F)F)n6)CC5)CC4)CC3)c21 (stereo partly drawn) , tested on IRAK4 (Homo sapiens)? < 10 nM

Which measured DC50 belongs to Cn1c(=O)n(C2CCC(=O)NC2=O)c2cccc(N3CCC4(CCN(C[C@H]5CC[C@H](n6cc(-n7cc(-c8cnn9ccc(N%10CCC(C)(O)CC%10)nc89)nn7)c(C(F)F)n6)CC5)C4)CC3)c21 (stereo partly drawn) , tested on IRAK4 (Homo sapiens)? 10 to 30 nM
